target_or_system: S. aureus AgrC in group-III (Staphylococcus aureus, UniProt O33590)
assay_explanation: AgrC inhibition YFP reporter gene assay, S. aureus group-III (AH1747)
Assay type: cell-based
condition_details: group-III; 10 μM where stated; YFP fluorescence relative to 1% DMSO control
Positions of bridges follow the written chain, without caps; N, C: chain ends. Non-standard residues stand in square brackets, D forms with d. Residues, ends and D or L forms follow the SMILES beside them. Dap = NC[CH](N)C(=O)O; Aoc = NCCCCCCCC(=O)O
result_type: AgrC activity, preliminary screening

compound="CC(=O)N[C@H]1CNC(=O)[C@H](Cc2ccccc2)NC(=O)[C@H](Cc2ccccc2)NC(=O)CCCCCCCCNC1=O [n8FF amide]" target_or_system="S. aureus AgrC in group-III (Staphylococcus aureus, UniProt O33590)" result="minimal levels"
compound="CC(=O)NC1CNC(=O)C(Cc2ccccc2)NC(=O)C(Cc2ccccc2)NC(=O)CCCCCCCNC1=O (centres unmarked) [n7FF amide] (Ac-[Dap][Aoc]FF; lactam 1-C; configuration not given here)" target_or_system="S. aureus AgrC in group-III (Staphylococcus aureus, UniProt O33590)" result="minimal levels"
compound="CC(=O)N[C@H]1CSC(=O)[C@H](Cc2ccccc2)NC(=O)[C@H](Cc2ccccc2)NC(=O)CCCCCCCNC1=O [n7FF] (Ac-C[Aoc]FF; thioester 1-C)" target_or_system="S. aureus AgrC in group-III (Staphylococcus aureus, UniProt O33590)" result="minimal levels"
